- test system: human 17β-HSD3 (Homo sapiens)
- Construct: expressed in transfected cells; host or cells: 293-EBNA cells (human), stably transfected
- Sequence (P37058 1-310): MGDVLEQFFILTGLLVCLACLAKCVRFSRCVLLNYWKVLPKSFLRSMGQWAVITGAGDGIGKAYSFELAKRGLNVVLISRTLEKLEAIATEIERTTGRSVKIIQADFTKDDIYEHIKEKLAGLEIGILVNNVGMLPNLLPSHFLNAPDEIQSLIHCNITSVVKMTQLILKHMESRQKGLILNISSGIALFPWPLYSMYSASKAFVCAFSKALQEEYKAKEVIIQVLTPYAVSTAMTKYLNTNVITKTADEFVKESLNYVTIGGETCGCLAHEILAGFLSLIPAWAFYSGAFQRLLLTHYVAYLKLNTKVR
- method: 17β-Hydroxysteroid dehydrogenase Type 3 activity in stably transfected 293-EBNA cells (3H-androstenedione to testosterone conversion)
- Type: cell-based
- test context: 10 μM test compound; 293-EBNA cells stably transfected with 17β-HSD Type 3; 2-3 nM 3H-androstenedione; 2 hours
Reported inhibition at 10 µM values follow for various compounds

compound="CC(=O)N1CC(N(Cc2ccccc2Oc2ccc(Cl)cc2)C(C)=O)Cc2ccccc21 (centres unmarked) [STX2525]" test_system="human 17β-HSD3 (Homo sapiens)" measure="inhibition at 10 µM" reading="20 to 60%"
compound="CC(=O)NC(CC(=O)Nc1ccccc1Oc1ccc(Cl)cc1)c1ccccc1 (centres unmarked) [STX1858]" test_system="human 17β-HSD3 (Homo sapiens)" measure="inhibition at 10 µM" reading="< 20%"
compound="CC(=O)N1CCC(C(=O)Nc2ccccc2Oc2cc(Cl)cc(Cl)c2)CC1 [STX1604]" test_system="human 17β-HSD3 (Homo sapiens)" measure="inhibition at 10 µM" reading="20 to 60%"
compound="CC(=O)N1CCC(Nc2ccccc2Oc2ccc(Cl)cc2Cl)CC1 [STX1616]" test_system="human 17β-HSD3 (Homo sapiens)" measure="inhibition at 10 µM" reading="> 60%"

Here is another compound to look at.
Incoming: # query: inhibition at 10 µM of entry O=C(Nc1ccccc1Oc1ccc(Cl)cc1Cl)C1CCN(C(=O)c2ccccc2)CC1 [STX1613]
Outgoing: 20 to 60%
